Attribution: paper PMC7688577

I'd be grateful if you could share measured Image-based assay NIH3T3 (RHO^P23H/GFP) Efficacy for these entries.
# measured.on: P23H rhodopsin (Mus musculus, UniProt P15409, P23H)
# test.details: Image-based
# Type: cell-based
# setup.conditions: DMSO = 0%, secondary antibody only = -100%
Give bare numbers, in %.

Below, each entry is followed by its recorded Image-based assay NIH3T3 (RHO^P23H/GFP) Efficacy result.
| compound | reported |
| --- | --- |
| CC(=O)OC(CC(=O)[O-])C[N+](C)(C)C (centres unmarked) | −83.6 |
| CCn1cnc2c(N)ncnc21 | −72.7 |
| O=C(O)C1=CC=CC(O)C1O (centres unmarked) | −46.1 |

Hi there! I need Image-based assay NIH3T3 (RHO^P23H/GFP) Efficacy for each item below, if you can.
1. O=[N+]([O-])c1ccc(Cl)c([N+](=O)[O-])c1
2. CCC(C)(O)C(O)C(=O)O (centres unmarked)
3. CC(O)CN (centres unmarked)
4. NCC(=O)COP(=O)(O)O

Solution:
−76.4
−70.1
−70.7
−72.7

Image-based assay NIH3T3 (RHO^P23H/GFP) Efficacy measured on CC(=O)OC(CC(=O)O)C[N+](C)(C)C (centres unmarked) = −61.0
